- System: Alternaria brassicae
- METHOD_DESCRIPTION: Antifungal activity against Alternaria brassicae QDAU-1 by microplate assay
- Format: functional
Listed next: entries and their corresponding MIC.

Check out these entries, answers already filled in.
C[C@@H]1[C@H](O)[C@@H](C)/C=C/C=C/C=C/C=C/C=C/C=C/C=C/[C@H](O[C@@H]2O[C@H](C)[C@@H](O)[C@H](N)[C@@H]2O)C[C@@H]2O[C@](O)(C[C@@H](O)C[C@@H](O)[C@H](O)CC[C@@H](O)C[C@@H](O)CC(=O)O[C@H]1C)C[C@H](O)[C@H]2C(=O)O [AMPHOTERICIN B] : 32 µg/mL
CC(C)C(O)CC[C@](C)(O)c1ccc(C(=O)O)cc1O (stereo not given in full) : > 32 µg/mL
C=C(CCCC(C)C)c1ccc(C(=O)O)cc1O : > 32 µg/mL

GET /values?readout=MIC&item= CC(C)CCC[C@](C)(O)c1ccc(COC(=O)c2ccc([C@@](C)(O)CCCC(C)C)c(O)c2)cc1O
32 µg/mL

GET /values?readout=MIC&item= Cc1cc(O)cc(Oc2cc(C)cc(OCc3ccc([C@@](C)(O)CCCC(C)C)c(O)c3)c2)c1
0.5 µg/mL

----------
- System: Vibrio harveyi
- METHOD_DESCRIPTION: Antibacterial activity against Vibrio harveyi QDIO-7 by microplate assay
- Format: functional
RESULT_TYPE: MIC

C=C(C)CCC[C@](C)(O)c1ccc(C(=O)O)cc1O [11-DEHYDROSYDONIC ACID] : 4 µg/mL
Cc1ccc([C@@]2(C)CCC(=O)O2)c(O)c1 : 4 µg/mL
CC(C)(O)CCC[C@](C)(O)c1ccc(C(=O)O)cc1O : > 32 µg/mL
CC(C)CCC[C@](C)(O)c1ccc(C(=O)O)cc1O : 4 µg/mL
Cc1cc(O)cc(Oc2cc(C)cc(OCc3ccc([C@@](C)(O)CCCC(C)C)c(O)c3)c2)c1 : > 32 µg/mL
C/C(=C\CCC(C)C)c1ccc(Cc2c(C)cc(Oc3cc(C)cc(O)c3)cc2O)cc1O : > 32 µg/mL

GET /values?readout=MIC&item= CC(C)C(O)CC[C@](C)(O)c1ccc(C(=O)O)cc1O (stereo not given in full)
8 µg/mL

GET /values?readout=MIC&item= C=C(CCCC(C)C)c1ccc(C(=O)O)cc1O
4 µg/mL

GET /values?readout=MIC&item= O=C(N[C@H](CO)[C@H](O)c1ccc([N+](=O)[O-])cc1)C(Cl)Cl
4 µg/mL

GET /values?readout=MIC&item= CC(C)CCC[C@](C)(O)c1ccc(COC(=O)c2ccc([C@@](C)(O)CCCC(C)C)c(O)c2)cc1O
> 32 µg/mL

----------
- Tested on: Gaeumannomyces graminis
- METHOD_DESCRIPTION: Antifungal activity against Gaeumannomyces graminis QDAU-3 by microplate assay
- Type: functional
RESULT_TYPE: MIC

Check out these entries, answers already filled in.
CC(C)C(O)CC[C@](C)(O)c1ccc(C(=O)O)cc1O (stereo not given in full) : > 32 µg/mL
CC(C)(O)CCC[C@](C)(O)c1ccc(C(=O)O)cc1O : > 32 µg/mL
C[C@@H]1[C@H](O)[C@@H](C)/C=C/C=C/C=C/C=C/C=C/C=C/C=C/[C@H](O[C@@H]2O[C@H](C)[C@@H](O)[C@H](N)[C@@H]2O)C[C@@H]2O[C@](O)(C[C@@H](O)C[C@@H](O)[C@H](O)CC[C@@H](O)C[C@@H](O)CC(=O)O[C@H]1C)C[C@H](O)[C@H]2C(=O)O : 64 µg/mL
C=C(CCCC(C)C)c1ccc(C(=O)O)cc1O : 0.5 µg/mL

GET /values?readout=MIC&item= Cc1cc(O)cc(Oc2cc(C)cc(OCc3ccc([C@@](C)(O)CCCC(C)C)c(O)c3)c2)c1
32 µg/mL

----------
- Test system: Vibrio parahaemolyticus
- METHOD_DESCRIPTION: Antibacterial activity against Vibrio parahaemolyticus QDIO-8 by microplate assay
- Format: functional
Listed next: entries and their corresponding MIC.
Unit µg/mL implied. Number only.

CC(C)(O)CCC[C@](C)(O)c1ccc(C(=O)O)cc1O : 32
O=C(N[C@H](CO)[C@H](O)c1ccc([N+](=O)[O-])cc1)C(Cl)Cl : 0.5
CC(C)CCC[C@](C)(O)c1ccc(C(=O)O)cc1O : 4

GET /values?readout=MIC&item= C=C(C)CCC[C@](C)(O)c1ccc(C(=O)O)cc1O [11-DEHYDROSYDONIC ACID]
32

GET /values?readout=MIC&item= CC(C)CCC[C@](C)(O)c1ccc(COC(=O)c2ccc([C@@](C)(O)CCCC(C)C)c(O)c2)cc1O
32

GET /values?readout=MIC&item= C=C(CCCC(C)C)c1ccc(C(=O)O)cc1O
32

GET /values?readout=MIC&item= C/C(=C\CCC(C)C)c1ccc(Cc2c(C)cc(Oc3cc(C)cc(O)c3)cc2O)cc1O
32

GET /values?readout=MIC&item= CC(C)C(O)CC[C@](C)(O)c1ccc(C(=O)O)cc1O (stereo not given in full)
32

----------
- System: Gaeumannomyces graminis
- METHOD_DESCRIPTION: Antifungal activity against Gaeumannomyces graminis QDAU-3 by microplate assay
- Assay type: functional
Listed next: entries and their corresponding MIC.
Unit µg/mL implied. Number only.

Check out these entries, answers already filled in.
C/C(=C\CCC(C)C)c1ccc(Cc2c(C)cc(Oc3cc(C)cc(O)c3)cc2O)cc1O : 32
Cc1ccc([C@@]2(C)CCC(=O)O2)c(O)c1 : 32

GET /values?readout=MIC&item= CC(C)CCC[C@](C)(O)c1ccc(C(=O)O)cc1O
0.5

----------
- System: Aeromonas hydrophila
- METHOD_DESCRIPTION: Antibacterial activity against Aeromonas hydrophila QDIO-1 by microplate assay
- Format: functional
Listed next: entries and their corresponding MIC.

Check out these entries, answers already filled in.
CC(C)(O)CCC[C@](C)(O)c1ccc(C(=O)O)cc1O : 32 µg/mL
O=C(N[C@H](CO)[C@H](O)c1ccc([N+](=O)[O-])cc1)C(Cl)Cl : 4 µg/mL
CC(C)CCC[C@](C)(O)c1ccc(COC(=O)c2ccc([C@@](C)(O)CCCC(C)C)c(O)c2)cc1O : > 32 µg/mL
C/C(=C\CCC(C)C)c1ccc(Cc2c(C)cc(Oc3cc(C)cc(O)c3)cc2O)cc1O : > 32 µg/mL
CC(C)C(O)CC[C@](C)(O)c1ccc(C(=O)O)cc1O (stereo not given in full) : 32 µg/mL
Cc1ccc([C@@]2(C)CCC(=O)O2)c(O)c1 : > 32 µg/mL
C=C(C)CCC[C@](C)(O)c1ccc(C(=O)O)cc1O [11-DEHYDROSYDONIC ACID] : > 32 µg/mL
CC(C)CCC[C@](C)(O)c1ccc(C(=O)O)cc1O : > 32 µg/mL
Cc1cc(O)cc(Oc2cc(C)cc(OCc3ccc([C@@](C)(O)CCCC(C)C)c(O)c3)c2)c1 : > 32 µg/mL

Could you now consider this next compound?
GET /values?readout=MIC&item= C=C(CCCC(C)C)c1ccc(C(=O)O)cc1O
> 32 µg/mL

----------
- Tested on: Vibrio alginolyticus
- METHOD_DESCRIPTION: Antibacterial activity against Vibrio alginolyticus QDIO-5 by microplate assay
- Type: functional
RESULT_TYPE: MIC

O=C(N[C@H](CO)[C@H](O)c1ccc([N+](=O)[O-])cc1)C(Cl)Cl : 0.5 µg/mL
CC(C)(O)CCC[C@](C)(O)c1ccc(C(=O)O)cc1O : > 32 µg/mL

GET /values?readout=MIC&item= CC(C)C(O)CC[C@](C)(O)c1ccc(C(=O)O)cc1O (stereo not given in full)
> 32 µg/mL

GET /values?readout=MIC&item= CC(C)CCC[C@](C)(O)c1ccc(C(=O)O)cc1O
> 32 µg/mL

GET /values?readout=MIC&item= Cc1ccc([C@@]2(C)CCC(=O)O2)c(O)c1
> 32 µg/mL

GET /values?readout=MIC&item= Cc1cc(O)cc(Oc2cc(C)cc(OCc3ccc([C@@](C)(O)CCCC(C)C)c(O)c3)c2)c1
2 µg/mL

GET /values?readout=MIC&item= C/C(=C\CCC(C)C)c1ccc(Cc2c(C)cc(Oc3cc(C)cc(O)c3)cc2O)cc1O
8 µg/mL

----------
- METHOD_DESCRIPTION: Toxicity in brine shrimp
- Format: organism-based
- CONDITION_INFO: artemia salina, in vivo; read-out: LD50 (the source's name)
RESULT_TYPE: LC50

Check out these entries, answers already filled in.
C=C(C)CCC[C@](C)(O)c1ccc(C(=O)O)cc1O [11-DEHYDROSYDONIC ACID] : > 10 µg/mL
CC(C)C(O)CC[C@](C)(O)c1ccc(C(=O)O)cc1O (some centres undefined) : > 10 µg/mL
CC(C)CCC[C@](C)(O)c1ccc(C(=O)O)cc1O : > 10 µg/mL
Cc1cc(O)cc(Oc2cc(C)cc(OCc3ccc([C@@](C)(O)CCCC(C)C)c(O)c3)c2)c1 : > 10 µg/mL
Cc1ccc([C@@]2(C)CCC(=O)O2)c(O)c1 : > 10 µg/mL
C/C(=C\CCC(C)C)c1ccc(Cc2c(C)cc(Oc3cc(C)cc(O)c3)cc2O)cc1O : > 10 µg/mL

GET /values?readout=LC50&item= CC(C)(O)CCC[C@](C)(O)c1ccc(C(=O)O)cc1O
> 10 µg/mL

GET /values?readout=LC50&item= C=C(CCCC(C)C)c1ccc(C(=O)O)cc1O
> 10 µg/mL

GET /values?readout=LC50&item= CC(C)CCC[C@](C)(O)c1ccc(COC(=O)c2ccc([C@@](C)(O)CCCC(C)C)c(O)c2)cc1O
> 10 µg/mL
